Reference for the values: patent US20030068675

# ASSAYED_TARGET: ZFP SBS#923 (synthetic)
# Sequence (chain, as listed by the source): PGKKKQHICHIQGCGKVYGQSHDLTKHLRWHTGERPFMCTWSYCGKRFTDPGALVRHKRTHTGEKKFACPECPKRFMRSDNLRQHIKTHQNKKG
# METHOD: EMSA
# COND: tags: MBP fusion
pKd: −log10 of the molar value.
ENDPOINT_NAME: pKd

[[record]]
binder = "AAGGTCTCA (dsDNA) DNA 1: AAGGTCTCA DNA 2: TGAGACCTT"
quantitative_result = 8.70

